Origin of measurements: patent US11485742B2

# experimental-target: Cloned human M1 receptor (CHRM1) (Homo sapiens)
# Construct: expressed in transfected cells; host or cells: HEK293
# assay-remarks: CHRM1 Ca++ Flux Assay (HEK293 M1 cells, agonist mode)
# Type: cell-based
# measurement-conditions: geometric mean if tested more than once, read-out: M1 FDSS EC50
Kindly state pEC50 for each of the entries shown.
Give bare numbers, as −log10 of the molar value.

compound="Fc1ccc(OC2CCOCC2)c(C2CCN([C@@H]3COC4(C3)CN(c3nncs3)C4)CC2)c1 [Example 5J]" recorded_result=5.92

Okay, here is my list. What is pEC50 for each of these?
1. Fc1ccc(O[C@H]2CCCOC2)c(C2CCN([C@@H]3COC4(C3)CN(c3nnco3)C4)CC2)c1 (single isomer, unassigned) [Example 2R]
2. COc1ccccc1C1CCN([C@@H]2COC3(C2)CN(c2nncs2)C3)CC1 [Example 5R]

Reply |
[6.07, 6.04]

---

Answer each item with its documented pEC50.
# experimental-target: Cloned human M1 receptor (CHRM1) (Homo sapiens)
# assay-remarks: CHRM1 Ca++ Flux Assay (HEK293 M1 cells, agonist mode)
# measurement-conditions: geometric mean if tested more than once, read-out: M1 FDSS EC50
One number for each entry, as −log10 of the molar value.

Would you please look over these solved cases?
compound=Fc1cc(O[C@@H]2CCOC2)c(C2CCN([C@@H]3COC4(C3)CN(c3nncs3)C4)CC2)cc1F measured_endpoint=pEC50 recorded_result=6.10
compound="Fc1ccc(OC[C@H]2CCO2)c(C2CCN([C@@H]3COC4(C3)CN(c3nncs3)C4)CC2)c1.O=C(O)C(F)(F)F (single isomer, unassigned) [Example 2C]" measured_endpoint=pEC50 recorded_result=5.94

Ask | Consider the compound Fc1ccc(C2CCOCC2)c(C2CCN([C@@H]3COC4(C3)CN(c3nnco3)C4)CC2)c1 and give its measured pEC50.
Reply | 5.85

---

# experimental-target: Cloned human M1 receptor (CHRM1) (Homo sapiens)
# Construct: expressed in transfected cells; host or cells: HEK293
# Sequence (P11229 1-460): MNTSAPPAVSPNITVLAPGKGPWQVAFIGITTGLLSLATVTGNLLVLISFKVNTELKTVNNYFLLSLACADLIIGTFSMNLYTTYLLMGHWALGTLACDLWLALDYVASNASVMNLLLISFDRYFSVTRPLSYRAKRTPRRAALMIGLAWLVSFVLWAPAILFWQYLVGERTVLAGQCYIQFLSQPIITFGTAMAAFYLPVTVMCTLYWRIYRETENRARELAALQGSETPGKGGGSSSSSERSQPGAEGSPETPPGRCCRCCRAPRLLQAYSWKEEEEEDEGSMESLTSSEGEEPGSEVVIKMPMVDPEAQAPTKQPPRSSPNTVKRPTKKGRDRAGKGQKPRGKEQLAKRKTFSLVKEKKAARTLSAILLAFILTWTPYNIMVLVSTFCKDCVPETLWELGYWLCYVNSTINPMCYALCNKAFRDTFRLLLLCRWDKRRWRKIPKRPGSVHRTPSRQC
# assay-remarks: CHRM1 Ca++ Flux Assay (HEK293 M1 cells, agonist mode)
# Format: cell-based
# measurement-conditions: Percent Activity (PA), read-out: M1 FDSS PA %
measured-endpoint: Emax (%)
Numbers only, in %.

Quick request: Emax for each listed item, please.
1. COC(C)(C)CCOc1ccc(F)cc1C1CCN([C@@H]2COC3(C2)CN(c2nnco2)C3)CC1
2. Fc1cc(O[C@@H]2CCOC2)c(C2CCN([C@@H]3COC4(C3)CN(c3nnco3)C4)CC2)cc1F
3. c1ccc(C2CCN([C@@H]3COC4(C3)CN(c3nnco3)C4)CC2)c(-c2cncnc2)c1
4. Cc1nnc(COc2ccc(F)cc2C2CCN([C@@H]3COC4(C3)CN(c3nnco3)C4)CC2)o1
5. c1ccc(C2CCN([C@@H]3COC4(C3)CN(c3ncco3)C4)CC2)c(OC2CCOCC2)c1
6. CCC1(COc2ccc(F)cc2C2CCN([C@@H]3COC4(C3)CN(c3nnco3)C4)CC2)COC1

Reply |
1. 58
2. 76
3. 94
4. 103
5. 72
6. 71

---

Consider the following compounds; for each one, report its pEC50.
# experimental-target: human cloned CHRM5 receptor (Homo sapiens)
# Sequence (P08912 whole entry): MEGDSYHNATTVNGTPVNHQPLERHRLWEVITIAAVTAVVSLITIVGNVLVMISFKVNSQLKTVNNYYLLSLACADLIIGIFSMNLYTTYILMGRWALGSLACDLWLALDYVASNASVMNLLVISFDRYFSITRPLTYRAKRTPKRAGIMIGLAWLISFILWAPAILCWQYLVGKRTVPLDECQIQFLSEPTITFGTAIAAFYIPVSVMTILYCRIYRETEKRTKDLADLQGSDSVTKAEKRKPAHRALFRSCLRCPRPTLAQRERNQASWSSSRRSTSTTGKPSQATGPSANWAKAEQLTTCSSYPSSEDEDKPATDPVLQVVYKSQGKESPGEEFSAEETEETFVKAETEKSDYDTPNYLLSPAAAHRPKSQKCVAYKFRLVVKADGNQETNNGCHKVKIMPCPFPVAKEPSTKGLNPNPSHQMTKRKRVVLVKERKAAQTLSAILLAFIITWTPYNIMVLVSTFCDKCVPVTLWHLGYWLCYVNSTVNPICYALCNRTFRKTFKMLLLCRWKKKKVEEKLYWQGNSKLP
# assay-remarks: CHRM5 Ca++ Flux Assay (M5_CHO cells, agonist mode)
# measurement-conditions: agonist mode, geometric mean if tested more than once, read-out: M5 FDSS EC50
pEC50: −log10 of the molar value.

Examples with answers:
compound=CCC1(COc2ccc(F)cc2C2CCN([C@@H]3COC4(C3)CN(c3nnco3)C4)CC2)COC1 recorded_result="< 4.60"
compound="CC(C)(O)[C@H]1C[C@H](Oc2ccc(F)cc2C2CCN([C@@H]3COC4(C3)CN(c3nnco3)C4)CC2)C1 (single isomer, unassigned) [Example 2V]" recorded_result="< 4.60"

Ask | Fill in: pEC50 of CC(C)(O)CCOc1ccc(F)cc1C1CCN([C@@H]2COC3(C2)CN(c2nnco2)C3)CC1 is ___
Reply | < 4.60

---

# experimental-target: human cloned CHRM4 receptor (Homo sapiens)
# Construct: expressed in transfected cells; host or cells: CHO-K1 (M4_CHO)
# Sequence (P08173 whole entry): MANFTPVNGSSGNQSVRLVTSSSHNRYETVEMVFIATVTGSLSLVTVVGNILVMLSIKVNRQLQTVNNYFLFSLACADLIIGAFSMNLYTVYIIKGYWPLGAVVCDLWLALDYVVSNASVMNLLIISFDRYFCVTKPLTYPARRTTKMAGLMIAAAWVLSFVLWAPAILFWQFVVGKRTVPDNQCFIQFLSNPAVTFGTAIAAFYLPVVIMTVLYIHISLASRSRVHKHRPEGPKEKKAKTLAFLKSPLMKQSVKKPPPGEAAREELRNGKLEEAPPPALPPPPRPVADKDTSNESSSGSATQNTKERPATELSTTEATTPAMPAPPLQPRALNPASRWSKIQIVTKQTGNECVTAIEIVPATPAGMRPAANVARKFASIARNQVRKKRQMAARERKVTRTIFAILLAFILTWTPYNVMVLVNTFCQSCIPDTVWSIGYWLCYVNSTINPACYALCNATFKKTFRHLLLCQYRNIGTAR
# assay-remarks: CHRM4 Ca++ Flux Assay (M4_CHO cells, agonist mode)
# Format: cell-based
# measurement-conditions: Percent Activity (PA), read-out: M4 FDSS PA %
measured-endpoint: Emax
A bare number is not enough; add the unit after it.

compound="Fc1ccc(OC2CC3(COC3)C2)c(C2CCN([C@@H]3COC4(C3)CN(c3nnco3)C4)CC2)c1 [Example 2L]" measured_endpoint=Emax recorded_result=81%
compound="COCCOc1ccc(F)cc1C1CCN([C@@H]2COC3(C2)CN(c2nncs2)C3)CC1 [Example 5S]" measured_endpoint=Emax recorded_result=69%
compound="Fc1ccc(OC2CCOCC2)c(C2CCN([C@@H]3COC4(C3)CN(c3ncco3)C4)CC2)c1 [Example 4E]" measured_endpoint=Emax recorded_result=81%
compound="c1ccc(C2CCN([C@@H]3COC4(C3)CN(c3ncco3)C4)CC2)c(OC2CC3(COC3)C2)c1 [Example 4M]" measured_endpoint=Emax recorded_result=82%

Each of the following entries comes with a recorded value; kindly state Emax for each.
1. Fc1ccc(OC[C@H]2CCOC2)c(C2CCN([C@@H]3COC4(C3)CN(c3nncs3)C4)CC2)c1 [Example 5X]
2. Fc1ccc(OC[C@@H]2CCOC2)c(C2CCN([C@@H]3COC4(C3)CN(c3nncs3)C4)CC2)c1 [Example 5I]
3. c1ccc(C2CCN([C@@H]3COC4(C3)CN(c3ncco3)C4)CC2)c(OC2CCOCC2)c1 [Example 4J]
4. c1ccc(C2CCN([C@@H]3COC4(C3)CN(c3ncco3)C4)CC2)c(-c2cncnc2)c1 [Example 4R]

Reply |
1: 71%; 2: 71%; 3: 82%; 4: 70%

---

Would you mind telling me the reported M1 FDSS PA % of each entry?
# experimental-target: Cloned human M1 receptor (CHRM1) (Homo sapiens, UniProt P11229)
# Construct: expressed in transfected cells; host or cells: HEK293
# assay-remarks: CHRM1 Ca++ Flux Assay (HEK293 M1 cells, agonist mode)
# Assay type: cell-based
# measurement-conditions: Percent Activity (PA)
One number for each entry, in %.

Known results for compounds:
compound="CC1(C)C[C@@H](Oc2ccc(F)cc2C2CCN([C@@H]3COC4(C3)CN(c3nnco3)C4)CC2)CO1 (single isomer, unassigned) [Example 2N]" readout_units=% recorded_result=71
compound="CC1(C)C[C@@H](Oc2ccc(F)cc2C2CCN([C@@H]3COC4(C3)CN(c3nnco3)C4)CC2)CO1 (single isomer, unassigned) [Example 2O]" readout_units=% recorded_result=72

Ask | # lookup: M1 FDSS PA % of Fc1ccc(OC[C@H]2CCO2)c(C2CCN([C@@H]3COC4(C3)CN(c3nncs3)C4)CC2)c1.O=C(O)C(F)(F)F (single isomer, unassigned) [Example 2D]
Reply | 72

---

# experimental-target: Cloned human M1 receptor (CHRM1) (Homo sapiens)
# Construct: expressed in transfected cells; host or cells: HEK293
# assay-remarks: CHRM1 Ca++ Flux Assay (HEK293 M1 cells, agonist mode)
# Assay type: cell-based
# measurement-conditions: Percent Activity (PA), read-out: M1 FDSS PA %
Response field class: enum, chosen by comparing Emax against bin 1 (below 60%), bin 2 (60% to below 80%), bin 3 (80% or more)

Use the examples below as a reference point.
given_smiles=Fc1ccc(OC2CCOCC2)c(C2CCN([C@@H]3COC4(C3)CN(c3ncco3)C4)CC2)c1 discrete_label="bin 2"
given_smiles=c1ccc(C2CCN([C@@H]3COC4(C3)CN(c3ncco3)C4)CC2)c(O[C@H]2CCOC2)c1 discrete_label="bin 2"
given_smiles=CC1(COc2ccc(F)cc2C2CCN([C@@H]3COC4(C3)CN(c3nncs3)C4)CC2)COC1 discrete_label="bin 3"
given_smiles=CC(C)(O)CCOc1ccc(F)cc1C1CCN([C@@H]2COC3(C2)CN(c2nncs2)C3)CC1 discrete_label="bin 3"
given_smiles=COc1cc(F)ccc1C1CCN([C@@H]2COC3(C2)CN(c2ncns2)C3)CC1 discrete_label="bin 1"
given_smiles=Fc1cc(OC2COC2)c(C2CCN([C@@H]3COC4(C3)CN(c3ncco3)C4)CC2)cc1F discrete_label="bin 2"
given_smiles=Fc1ccc(O[C@@H]2CCOC2)c(C2CCN([C@@H]3COC4(C3)CN(c3nncs3)C4)CC2)c1 discrete_label="bin 2"
given_smiles=COc1ccccc1C1CCN([C@@H]2COC3(C2)CN(c2ncns2)C3)CC1 discrete_label="bin 1"
given_smiles=Fc1cc(F)c(OCC2COC2)c(C2CCN([C@@H]3COC4(C3)CN(c3nnco3)C4)CC2)c1 discrete_label="bin 2"
given_smiles=Fc1ccc(OCc2ncccn2)c(C2CCN([C@@H]3COC4(C3)CN(c3nnco3)C4)CC2)c1 discrete_label="bin 3"

Ask | Into which bin does this molecule go? Fc1ccc(OC2CC3(COC3)C2)c(C2CCN([C@@H]3COC4(C3)CN(c3nncs3)C4)CC2)c1
Reply | bin 2

Ask | Next record, please: COCCOc1ccc(F)cc1C1CCN([C@@H]2COC3(C2)CN(c2ncco2)C3)CC1
Reply | bin 2
